Measured pIC50 of individual entries
- Tested on: GCPA113 T1.II patient-derived AGCT cell line
- assay summary: Cell viability drug screen (Cell Titer Glo 2.0, 72 h), mono- and combination therapy, GCPA113T1.II
- reported conditions: Homo sapiens, 72 h, read-out: IC50 in monotherapy
pIC50: −log10 of the molar value.
quantity kind: pIC50

>>> result("Cc1nc(Nc2ncc(C(=O)Nc3c(C)cccc3Cl)s2)cc(N2CCN(CCO)CC2)n1")
"< 4.70"
>>> result("N#Cc1ccc(C(c2ccc(C#N)cc2)n2cncn2)cc1")
"< 4.30"
>>> result("Cc1nc(NC(=O)N2CCC[C@H]2C(N)=O)sc1-c1ccnc(C(C)(C)C(F)(F)F)c1")
4.67
>>> result("CC(C)(C#N)c1cc(Cn2cncn2)cc(C(C)(C)C#N)c1")
"< 3.70"
>>> result("CO[C@H]1C[C@@H]2CC[C@@H](C)[C@@](O)(O2)C(=O)C(=O)N2CCCC[C@H]2C(=O)O[C@H]([C@H](C)C[C@@H]2CC[C@@H](OCCO)[C@H](OC)C2)CC(=O)[C@H](C)/C=C(\\C)[C@@H](O)[C@@H](OC)C(=O)[C@H](C)C[C@H](C)/C=C/C=C/C=C/1C")
"< 4.30"
>>> result("CC(=O)[C@@]1(O)CC[C@H]2[C@@H]3CCC4=CC(=O)CCC4=C3[C@@H](c3ccc(N(C)C)cc3)C[C@@]21C")
"< 4.30"
>>> result("CC(=O)O[C@H]1C(=O)[C@@]2(C)[C@H]([C@H](OC(=O)c3ccccc3)[C@]3(O)C[C@H](OC(=O)[C@H](O)[C@@H](NC(=O)c4ccccc4)c4ccccc4)C(C)=C1C3(C)C)[C@]1(OC(C)=O)CO[C@@H]1C[C@@H]2O")
4.32

Source of measurements: paper PMC7864192
